Cited source for all entries: the supplement of paper PMC9170038

- Test system: MS2 coat protein
- ASSAY SUMMARY: apparent KD of MS2 coat protein; designed switch direction (-1 OFF switch, 1 ON switch): -1; higher = weaker reporter binding
- PARTICULARS: Eterna round: R95; input ligand: none
I'd be grateful if you could share measured apparent KD of MS2 coat protein for these entries.
Quick note: give the figure in nM, leave out the unit.

Value of measured apparent KD of MS2 coat protein for the entry CUUCCCAAAGGAUAUCACGGUAAUAACAUGAGGAUCACCCAUGUGCAAUUCGUGUCCCUGUGAGAAGGUUGAGAAG [Anlabe] (puzzle: Exclusion 5) : 12

Value of measured apparent KD of MS2 coat protein for the entry AUGGACGCAGGAUAUACAUGAGGAUCACCCAUGUGAGGUUGGUAAGUAGGAAGUGAAGGUAGAAGGGCGAGAGU [JR_Exclu3_Sub098] (puzzle: Exclusion 3) : 76.8

Value of measured apparent KD of MS2 coat protein for the entry GAUUAUGCGAGCUUUAGGGACAUGAGGAUCACCCAUGUUCGUCUUAUUGAUCUAGGUGCACUGACAUACCUAAAUCU [JMF 89] (puzzle: Sensor v3, turn-off variant 1) : 29.8

Value of measured apparent KD of MS2 coat protein for the entry GUUAAACAUGAGGAUCACCCAUGUAAGGAUAUGCUGAGGUAGAGAUGAAGUGAAUGAAGCAGAAGGUACAAUUG [Mat - Mod of JL D55] (puzzle: Exclusion 1) : 78.8

Value of measured apparent KD of MS2 coat protein for the entry AAAUACAAGCAAAGAUCCUACAUGAGGAUCACCCAUGUGUUCGUCUUAUAAAGUACUAUCACGAAAGUGAUAGUACA [Sensor 3, v1 - 18] (puzzle: Sensor v3, turn-off variant 1) : 198

Value of measured apparent KD of MS2 coat protein for the entry CUGGUCCGAGGAUAUAUUAAGUGAAACAUGAGGAUCACCCAUGUUAUUUAAUGGAAAUAAAUAGAAGGCGGACUAG [Mat - Exclusion 5 - JL mod - D55] (puzzle: Exclusion 5) : 59.9

###

- System: MS2 coat protein
- ASSAY SUMMARY: apparent KD of MS2 coat protein; designed switch direction (-1 OFF switch, 1 ON switch): -1; higher = weaker reporter binding
- PARTICULARS: Eterna round: R95; input ligand: microRNA oligo, concentration not stated
Label scheme for apparent KD of MS2 coat protein: lower than 30 nM is Condition not met, 30 nM and above is Condition met.

Q: // inclusive: apparent KD of MS2 coat protein at least 30 nM? input: AAUAAACAUGAGGAUCACCCAUGUGAGGAUAUCCAAAUAAAUAAUAAAAUAAAUAAAAGGAGAAGGCACAAUAA [JMF most obvious solution 2] (puzzle: Exclusion 1)
Ans: Condition met

Q: // inclusive: apparent KD of MS2 coat protein at least 30 nM? input: UCAAAGCUAGGAUAUACAUGAGGAUCACCCAUGUUAUCACCCAUCGGGUCUUGCUUUUGUAGAAGGAGCAAUAA [Xeinso] (puzzle: Exclusion 3)
Ans: Condition not met

Q: // inclusive: apparent KD of MS2 coat protein at least 30 nM? input: AAUUUACAUGAGGAUCACCCAUGUGAGGAUAUGAUACUAUGUACUUCGGUACAUAGUAUCAGAAGGCAUGUGAA [Ex1-3: 92] (puzzle: Exclusion 1)
Ans: Condition met

Q: // inclusive: apparent KD of MS2 coat protein at least 30 nM? input: CAAUUCCGAGGAUAUACAUGAGGAUCACCCAUGUCGGGCCUCAGCGUUUAGCGCUUAAGUAGAAGGUGGGUUUC [JL Riri mod 5] (puzzle: Exclusion 3)
Ans: Condition met

Q: // inclusive: apparent KD of MS2 coat protein at least 30 nM? input: GAAAAGGUAGGAUAUACUAAAAAAAAGGGUAGAAAAAAAACACAUGAGGAUCACCCAUGUAGAAGGACCAAAAG [salish99_ex2_r3_058] (puzzle: Exclusion 2)
Ans: Condition met

Q: // inclusive: apparent KD of MS2 coat protein at least 30 nM? input: UAAAAGCUAGGAUAUACAUGAGGAUCACCCAUGUACCGGCUUGGCCCUGGUCCUAAAUGUAGAAGGAGCACGCC [Zarebebi] (puzzle: Exclusion 3)
Ans: Condition not met

Q: // inclusive: apparent KD of MS2 coat protein at least 30 nM? input: GCAGUGCGAGGAUAUACAUGAGGAUCACCCAUGUGAGAAUAAUAAGUGAGGAAGAAAAGUAGAAGGCGCGUUGG [Mat - Exclusion 3 - Mod of Salish D67] (puzzle: Exclusion 3)
Ans: Condition met

Q: // inclusive: apparent KD of MS2 coat protein at least 30 nM? input: GAUUGACAUGAGGAUCACCCAUGUGAGGAUAUCGGCUGGACCGUGUUGGCCUGCCUCUCGAGAAGGCGCAUAGG [Exclusion 1 V53] (puzzle: Exclusion 1)
Ans: Condition met

Q: // inclusive: apparent KD of MS2 coat protein at least 30 nM? input: UUUUAACAUGAGGAUCACCCAUGUGAGGAUAUCGAAAUUUAUAUUAAUAUUAUUUUAACGAGAAGGCACAUUUU [JMF 47] (puzzle: Exclusion 1)
Ans: Condition met

Q: // inclusive: apparent KD of MS2 coat protein at least 30 nM? input: CCGGAUAUGCAGGAUAUCGUAUCGGAUACGAUACGAGAAGGGUAUACAUGAGGAUCACCCAUGUGCCUUACCGG [Mat - Exclusion 6 - Eli Mod - D83] (puzzle: Exclusion 6)
Ans: Condition not met

Q: // inclusive: apparent KD of MS2 coat protein at least 30 nM? input: CUGGUCCGAGGAUAUAUUAAGUGAAACAUGAGGAUCACCCAUGUUAUUUAAUGGAAAUAAAUAGAAGGCGGACUAG [Mat - Exclusion 5 - JL mod - D55] (puzzle: Exclusion 5)
Ans: Condition met

###

- Test system: MS2 coat protein
- ASSAY SUMMARY: apparent KD of MS2 coat protein, switch OFF state (with FMN for OFF switches, without FMN for ON switches); designed switch direction (-1 OFF switch, 1 ON switch): -1; higher = weaker reporter binding
- PARTICULARS: FMN input: 0 or 200 uM; Eterna round: R93 (includes R88 designs)
Label scheme for apparent KD of MS2 coat protein: lower than 60 nM is label 0, 60 nM and above is label 1.

Q: // inclusive: apparent KD of MS2 coat protein at least 60 nM? input: AAGAAGGGAGGAUAUACUAAAGAAAUGAAAAGAAAUAAAGAACAUGAGGAUCACCCAUGUAGAAGGCCCAAGAA [Nehesy]
Ans: label 0

Q: // inclusive: apparent KD of MS2 coat protein at least 60 nM? input: GGUUGGCGAGGAUAUACAUGAGGAUCACCCAUGUGAGAGAUAAAAGUGAGAAAGAAAAGUAGAAGGCGCUGACG [salish99-ex3-45]
Ans: label 1

Q: // inclusive: apparent KD of MS2 coat protein at least 60 nM? input: AAAAGACAUGAGGAUCACCCAUGUGAGGAUAUGACGUAAAGAAAGAAAGAAGAAAUCGUCAGAAGGCACACCUA [Mat - Exclusion 1 - Eli mod - D68]
Ans: label 1

Q: // inclusive: apparent KD of MS2 coat protein at least 60 nM? input: AGGAUGUCAGGAUAUGUGUAAAGAAUAAAACAAAUAACAACACAGAAGGGACAUGAGGAUCACCCAUGUUACCC [May 38]
Ans: label 0

Q: // inclusive: apparent KD of MS2 coat protein at least 60 nM? input: AAAGGAUCAGGAUAUGUGUGGAAAAAGUGUGUCCAAAAAAAACAUGAGGAUCACCCAUGUAGAAGGGAUCCAAA [Mod 4 of Normal (20/19) by Nando, Round 1]
Ans: label 1

###

- Test system: MS2 coat protein
- ASSAY SUMMARY: apparent KD of MS2 coat protein; designed switch direction (-1 OFF switch, 1 ON switch): -1; higher = weaker reporter binding
- PARTICULARS: input ligand: FMN 200 uM
MEASUREMENT NAME: apparent KD of MS2 coat protein (µM)
Quick note: give the figure in µM, leave out the unit.

Value of measured apparent KD of MS2 coat protein for the entry GUUCGACAUGAGGAUCACCCAUGUGAGGAUAUACGAUUAGCUGCUAGGUAGUUAGUAUGUAGAAGGUGCGUGAA [EX1 #72] (Eterna round: R97, puzzle: Exclusion 1) : 0.044

Value of measured apparent KD of MS2 coat protein for the entry GUAGAGUGAGGAUAUACAAGAUCGAAAGAUCGGCGAUCCAUACAUGAGGAUCACCCAUGUAGAAGGCACUCUAC [Eli x2 4.007] (Eterna round: R97, puzzle: Exclusion 2) : 0.678

Value of measured apparent KD of MS2 coat protein for the entry AGCGAGGCAGGAUAUACAUGAGGAUCACCCAUGUGCUUGCAUGGCGUGGGACGUCGAGGUAGAAGGGCCAUGCC [EX3 #70] (Eterna round: R97, puzzle: Exclusion 3) : 0.0873

Value of measured apparent KD of MS2 coat protein for the entry AUGAUACAUGAGGAUCACCCAUGUGAGGAUAUGAAGUUAUAAUACAUACUAUACAUCUUCAGAAGGCAUAUGUG [E1 S1 6/16] (Eterna round: R97, puzzle: Exclusion 1) : 0.229

Value of measured apparent KD of MS2 coat protein for the entry UGUCCACAUUCCGAUACGGGACAUGAGGAUCACCCAUGUCCACAGGAUAUCGUCUUACGAGAGAUCGAGAAGGGUGGCGUGCGC [Eternabot solution 22] (Eterna round: R96, puzzle: Exclusion NG 3) : 0.0131

Value of measured apparent KD of MS2 coat protein for the entry CUGACGUCAGGAUAUAGCAUACACUGACUAGAUGGACAGGGUUAGAAGGGACAUGAGGAUCACCCAUGUGGUUU [Eternabot (L1) Solution 81] (Eterna round: R97, puzzle: Exclusion 4) : 0.0563

Value of measured apparent KD of MS2 coat protein for the entry AGGAUGUGAGGAUAUCCAUCCCGCGAAUGCGGGUAAUAAAUGGAGAAGGCACAUGAGGAUCACCCAUGUGAUGA [Laleatus] (Eterna round: R97, puzzle: Exclusion 4) : 0.978

Value of measured apparent KD of MS2 coat protein for the entry AUGUUGCGAGGAUAUAUAUGGAGGUUAAAAUUUGAUAUGGAACAUGAGGAUCACCCAUGUAGAAGGUGCAUAAC [JR_Ex2_Sub039] (Eterna round: R97, puzzle: Exclusion 2) : 0.155

Value of measured apparent KD of MS2 coat protein for the entry CGGCACCGAGGAUAUACAUGAGGAUCACCCAUGUUUGUUGGGCCCUUAAGAUCUACGUGUAGAAGGUGGGUCGA [Edaribi] (Eterna round: R96, puzzle: Exclusion 3) : 0.241

Value of measured apparent KD of MS2 coat protein for the entry UCUCGAUGGCAAGGAUAUCCUACAUUGUUCUGGCCCGGGCAUGCUACAUGAGGAUCACCCAUGUGGGAGAAGGUGCGCCACUGC [Design 26] (Eterna round: R96, puzzle: Exclusion NG 2) : 0.118

Value of measured apparent KD of MS2 coat protein for the entry UGAUUGUGAGGAUAUUCUGAAUAAGGCACGGGCGUCUUAUUGAAGAAGGCACAUGAGGAUCACCCAUGUGGGUU [Eternabot (L2) Solution 90] (Eterna round: R97, puzzle: Exclusion 4) : 0.248
